This collection of values is drawn from PubChem BioAssay (EPA / NIEHS).

test: ACEA_ER_AUC_viability: ACEA Biosciences xCELLigence Real-Time Cell Analysis on Estrogen Receptor Agonism for Viability (AID 2283782);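 also: continuous compound exposure with impedance area under curve over 80 h; hit means loss of impedance signal meaning reduced cell growth or viability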
Results filed as inconclusive are left out. Calls of active or inactive are those of the source. The calls were made as follows: active = hit-call score of the fitted dose curve at least 0.9, where 1 is the maximum; inconclusive = response in the unintended direction; inactive = score below 0.9.
Classes used: Y = active, N = inactive

- compound: "Nc1cc([N+](=O)[O-])ccc1O"
  classification: "Y"
- compound: "Clc1cccc(Cl)n1"
  classification: "N"
- compound: "CCCCC(CC)COCCC#N (configuration not stated)"
  classification: "N"
- compound: "Nc1cc([N+](=O)[O-])ccc1Cl"
  classification: "Y"
- compound: "CCCCC(CC)COC(=O)/C=C\\C(=O)OCC(CC)CCCC (configuration not stated)"
  classification: "Y"
- compound: "OC1C(O)C(O)C(O)C(O)C1O (configuration not stated)"
  classification: "N"
- compound: "Nc1nc2ccc([N+](=O)[O-])cc2s1"
  classification: "Y"
- compound: "O=S(=O)(O)NC1CCCCC1"
  classification: "Y"
- compound: "CC(=O)/C=C/C1=C(C)CCCC1(C)C"
  classification: "Y"
- compound: "CC1=CCC2C(C1)C2(C)C (configuration not stated)"
  classification: "N"
- compound: "CC(C)c1cccc(O)c1"
  classification: "N"
- compound: "CC(C)=CCC/C(C)=C/COC=O"
  classification: "N"
- compound: "CCCCc1ccc(N)cc1"
  classification: "N"
- compound: "CC1CCC(C(C)(C)O)CC1 (configuration not stated)"
  classification: "N"
- compound: "Cc1ccc(O)c(C(C)(C)C)c1"
  classification: "Y"
- compound: "O=C(O)Cc1cccc2ccccc12"
  classification: "N"
- compound: "c1ccc(CCCc2ccccn2)cc1"
  classification: "N"
- compound: "CC1CCC2CC1C2(C)C (configuration not stated)"
  classification: "N"
- compound: "CC(C)(C)NC(N)=O"
  classification: "N"
- compound: "CC(C)=CCCC(C)=CCCC(C)=CCO"
  classification: "Y"
- compound: "CSc1nc(NC2CC2)nc(NC(C)(C)C)n1"
  classification: "N"
- compound: "CC(C)[C@@H]1CC[C@@H](C)CC1=O"
  classification: "N"
- compound: "CCCCNC(=O)NS(=O)(=O)c1ccc(C)cc1"
  classification: "N"
- compound: "COc1cc(C=O)ccc1OC(=O)C(C)C"
  classification: "N"
- compound: "C=COCCOCCOCCOC=C"
  classification: "N"
- compound: "C=CCOC(=O)CCC1CCCCC1"
  classification: "Y"
- compound: "CC(C)(C)C(=O)c1ccccc1"
  classification: "N"
- compound: "CCN(CC)c1ccc2c(-c3ccccc3C(=O)O)c3ccc(=[N+](CC)CC)cc-3oc2c1"
  classification: "Y"
- compound: "CCCCCCCCCCCCCC(=O)O"
  classification: "N"
- compound: "O=C(O)CCCCCCCCCCC(=O)O"
  classification: "Y"
- compound: "CCCCCCOC(=O)CCCCC"
  classification: "N"
- compound: "CC1=CC(=O)NS(=O)(=O)O1"
  classification: "N"
- compound: "CCCCCCCCCCCCN"
  classification: "Y"
- compound: "CC(C)C[C@H]1C(=O)N2CCC[C@H]2[C@]2(O)O[C@](NC(=O)[C@@H]3C=C4c5cccc6[nH]c(Br)c(c56)C[C@H]4N(C)C3)(C(C)C)C(=O)N12"
  classification: "Y"
- compound: "COC(=O)c1ccc(C)cc1"
  classification: "N"
- compound: "CC(=O)[O][Al][O]C(C)=O"
  classification: "Y"
- compound: "c1ccc2[nH]ccc2c1"
  classification: "N"

* * *

Experiment: TOX21_p53_BLA_p5_viability: Viability Assessment in the Tox21 HCT-116 p53 Agonism Beta-lactamase Assay, Phase 5 (AID 2283600)
Description: TOX21_p53_BLA_p5 is a cell-based, single-readout assay that uses HCT116, a human intestinal cell line, […] in a 1536-well plate.TOX21_p53_BLA_p5_viability is an assay readout measuring cellular ATP content and detected with CellTiter-Glo Luciferase-coupled ATP quantitation.TOX21_p53_BLA_p5_viability used a type of viability reporter where loss-of-signal activity can be used to understand changes in the cell viability. […]
Inconclusive results are not listed. The source made the active and inactive calls. Rule for the calls: active = hit-call score of the fitted dose curve at least 0.9, where 1 is the maximum; inconclusive = response in the unintended direction; inactive = score below 0.9.
Classes used: yes (1) (active), no (0) (inactive)

- compound: "O=C(O)CCSCCC(=O)O"
  classification: "no (0)"
- compound: "CC(=O)C(C)=O"
  classification: "no (0)"
- compound: "CCN(CC)c1ccc(C(=C2C=CC(=[N+](CC)CC)C=C2)c2ccc(S(=O)(=O)O)cc2S(=O)(=O)[O-])cc1"
  classification: "yes (1)"
- compound: "O=C(O)c1snc(Cl)c1Cl"
  classification: "no (0)"
- compound: "O=c1[nH]c(=O)n([C@H]2CCCO2)cc1F"
  classification: "no (0)"
- compound: "CC1=CCC2C(C1)C2(C)C (configuration not stated)"
  classification: "no (0)"
- compound: "Nc1cccc(S(=O)(=O)c2cccc(N)c2)c1"
  classification: "no (0)"
- compound: "CCCCO"
  classification: "no (0)"
- compound: "CCN(CC)CCOC(=O)c1ccc(N)cc1"
  classification: "no (0)"
- compound: "OCCN1CCNCC1"
  classification: "no (0)"
- compound: "CC(=O)[C@H]1CC[C@H]2[C@@H]3CC=C4C[C@@H](O)CC[C@]4(C)[C@H]3CC[C@]12C"
  classification: "no (0)"
- compound: "NNc1nc(-c2ccc(N)cc2)cs1"
  classification: "no (0)"

* * *

biological target: Paired box protein Pax-6 (Homo sapiens) (UniProt P26367); test: ATG_Pax6_CIS: Attagene CIS-FACTORIAL HepG2 Assay for human Paired Box 6 (PAX6) (AID 2282956); conditions: HepG2 CIS-FACTORIAL PAX6 reporter transcription, RNA readout; actives raise or lower the signal
Sequence (P26367 whole entry, looked up): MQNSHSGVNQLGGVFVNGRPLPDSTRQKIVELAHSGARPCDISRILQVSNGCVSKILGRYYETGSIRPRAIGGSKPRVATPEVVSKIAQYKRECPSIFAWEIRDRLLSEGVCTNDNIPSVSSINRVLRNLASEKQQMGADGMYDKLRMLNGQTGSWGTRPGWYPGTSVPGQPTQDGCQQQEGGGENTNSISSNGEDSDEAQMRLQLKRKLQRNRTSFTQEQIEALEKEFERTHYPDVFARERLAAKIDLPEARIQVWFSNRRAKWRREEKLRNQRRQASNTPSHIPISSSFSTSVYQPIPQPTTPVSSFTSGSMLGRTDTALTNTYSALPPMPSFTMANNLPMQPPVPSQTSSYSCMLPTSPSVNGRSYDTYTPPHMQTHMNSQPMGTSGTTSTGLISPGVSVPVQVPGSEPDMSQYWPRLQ
Activity calls are given as the source filed them. Rule for the calls: active = hit-call score of the fitted dose curve at least 0.9, where 1 is the maximum; inactive = score below 0.9.
Classes used: active, inactive

- compound: "CC(=O)[C@H]1CC[C@H]2[C@@H]3CC=C4C[C@@H](O)CC[C@]4(C)[C@H]3CC[C@]12C"
  classification: "inactive"
- compound: "O=C(O)c1ccc(C(=O)O)cc1"
  classification: "inactive"
- compound: "O=S(=O)(O)c1ccc(O)c2ncccc12"
  classification: "inactive"
- compound: "C=CC(C)(O)CCC=C(C)CCC=C(C)C (stereo unspecified)"
  classification: "active"
- compound: "Clc1nc(C(Cl)(Cl)Cl)c(Cl)c(Cl)c1Cl"
  classification: "inactive"
- compound: "O=S(=O)(O)c1cccc2c(S(=O)(=O)O)cccc12"
  classification: "inactive"
- compound: "CC(=O)C(C)=O"
  classification: "inactive"
- compound: "Cc1ccc(S)cc1"
  classification: "inactive"
- compound: "CCC(C)CCCC(C)(C)O (stereo unspecified)"
  classification: "inactive"
- compound: "O=C(O)c1cn(C2CC2)c2cc(N3CCNCC3)c(F)cc2c1=O"
  classification: "inactive"
- compound: "C=CC(=O)OCCOCCOCC"
  classification: "active"

* * *

assay: ATG_DR4_LXR_CIS: Attagene CIS-FACTORIAL HepG2 Assay for human Liver X Receptor (LXR), DR4 submotif (AID 2282929); details: HepG2 Attagene DR4 cis-reporter, mRNA transcription; actives raise or lower the signal
Active and inactive are the calls of the source. The calls were made as follows: active = hit-call score of the fitted dose curve at least 0.9, where 1 is the maximum; inactive = score below 0.9.
Classes used: y for active, n for inactive

- molecule: "CC(CCO)CCc1ccccc1 (centres undefined)"
  classification: "n"
- molecule: "CNC(=O)Oc1ccc2c(c1)[C@]1(C)CCN(C)[C@@H]1N2C"
  classification: "n"
- molecule: "COC(=O)c1ccc(C)cc1"
  classification: "n"
- molecule: "OCCOCCOCCOCCO"
  classification: "n"
- molecule: "CNCCCC12CCC(c3ccccc31)c1ccccc12"
  classification: "y"
- molecule: "COc1ccc(OC)c(OC)c1"
  classification: "n"
- molecule: "Cc1cccc(C)c1[N+](=O)[O-]"
  classification: "n"
- molecule: "CC1CCC2CC1C2(C)C (centres undefined)"
  classification: "n"
- molecule: "CCCCCOC(=O)CCC"
  classification: "n"

* * *

Experiment: ATG_PXRE_CIS: Attagene CIS-FACTORIAL HepG2 Assay for human Pregnane X Receptor Element (PXRE) (AID 2282957)
Conditions: HepG2 Attagene CIS-FACTORIAL PXRE reporter, mRNA; actives raise or lower the signal
Procedure: ATG_CIS is a cell-based, multiplexed-readout assay that uses HepG2, a human liver cell line, with measurements taken at 24 hours after chemical dosing in a 24-well plate.ATG_PXRE_CIS is one of 52 assay component(s) measured or calculated from the ATG_CIS assay. […] This assay endpoint, ATG_PXRE_CIS, was analyzed with bidirectional fitting relative to DMSO as the negative control and baseline of activity. […]
Active and inactive are the calls of the source. The calls were made as follows: active = hit-call score of the fitted dose curve at least 0.9, where 1 is the maximum; inactive = score below 0.9.
measured_metric: AC50

- molecule: "O=C(O)COCCN1CCN(C(c2ccccc2)c2ccc(Cl)cc2)CC1 (stereo unspecified)"
  assay_value: "inactive"
- molecule: "COc1ccc(OC)c(OC)c1"
  assay_value: "inactive"
- molecule: "O=P(c1ccccc1)(c1ccccc1)c1ccccc1"
  assay_value: "5.59 µM (active)"
- molecule: "Nc1cc(Cl)c(O)c(Cl)c1"
  assay_value: "24.8 µM (active)"
- molecule: "CCCCCC(=O)OCCc1ccccc1"
  assay_value: "inactive"
- molecule: "O=C1C(c2[nH]c3ccc(S(=O)(=O)O)cc3c2O)=Nc2ccc(S(=O)(=O)O)cc21"
  assay_value: "inactive"
- molecule: "CCN(CC)CCOC(=O)c1ccc(N)cc1"
  assay_value: "45.9 µM (active)"
- molecule: "COC(=O)Cc1cccc2ccccc12"
  assay_value: "42.8 µM (active)"
- molecule: "Nc1nc2ccc([N+](=O)[O-])cc2s1"
  assay_value: "19.8 µM (active)"
- molecule: "CC(=O)OCc1ccc2c(c1)OCO2"
  assay_value: "26.9 µM (active)"
- molecule: "Clc1sc(Cl)c(Cl)c1Cl"
  assay_value: "inactive"
